Sourced from patent US8987193B2

- Tested on: L. lactis CBC7
- Experimental Details: Deferred antagonism assay
- Type: cell-based
- Parameters: key: + = Enhanced bioactivity relative to control; − = Bioactivity equal to or less than control; NA = no activity evident
- Measurement Context: XX and XXX hinge mutant producers
Ends that are not written are not given here.
Endpoint: bioactivity relative to a nisin A-producing control

Substance	Observed Result
NisinA SVA (ITSISLCTPGCKTGALMGCSVATATCHCSIHVSK; not fully specified (bridges); also: lantibiotic nisin-A: lanthionine rings and dehydrated residues, places not given here; UniProt P13068 24-57, looked up, variant N20S M21V K22A) [nisin A hinge variant SVA (i.e. N20S, M21V, K22A)]	+
NisinA GLA (ITSISLCTPGCKTGALMGCGLATATCHCSIHVSK; cysteine pairing not given here; also: lantibiotic nisin-A; UniProt P13068 24-57, looked up, variant N20G M21L K22A) [nisin A hinge variant GLA (i.e. N20G, M21L, K22A)]	−
NisinA PAL (ITSISLCTPGCKTGALMGCPALTATCHCSIHVSK; not fully specified (bridges); also: lantibiotic nisin-A: lanthionine rings and dehydrated residues, places not given here; UniProt P13068 24-57, looked up, variant N20P M21A K22L) [nisin A hinge variant PAL (i.e. N20P, M21A, K22L)]	+
NisinA PAT (ITSISLCTPGCKTGALMGCPATTATCHCSIHVSK; not fully specified (bridges); also: lantibiotic nisin-A: lanthionine rings and dehydrated residues, places not given here; UniProt P13068 24-57, looked up, variant N20P M21A K22T) [nisin A hinge variant PAT (i.e. N20P, M21A, K22T)]	−
NisinA HLT (ITSISLCTPGCKTGALMGCHLTTATCHCSIHVSK; cysteine pairing not given here; also: lantibiotic nisin-A; UniProt P13068 24-57, looked up, variant N20H M21L K22T) [nisin A hinge variant HLT (i.e. N20H, M21L, K22T)]	+
NisinA QLT (ITSISLCTPGCKTGALMGCQLTTATCHCSIHVSK; not fully specified (bridges); also: lantibiotic nisin-A: lanthionine rings and dehydrated residues, places not given here; UniProt P13068 24-57, looked up, variant N20Q M21L K22T) [nisin A hinge variant QLT (i.e. N20Q, M21L, K22T)]	−

====

- System: Listeria monocytogenes 33028
- Experimental Details: Deferred antagonism assay
- Format: cell-based
- Set-up: key: −, no inhibition; (+), clear zone directly above the colony; +, 1-5 mm zone; ++, 6-10 mm zone; +++, <10 mm zone
- Measurement Context: nisin strain; L. monocytogenes 33028
Ends that are not written are not given here.
Endpoint: Activity score (zone)

Substance	Measurement Target	Observed Result
NisinA M21G (ITSISLCTPGCKTGALMGCNGKTATCHCSIHVSK; not fully specified; also: lantibiotic: lanthionine rings and dehydro residues not placed; UniProt P13068 24-57, looked up, variant M21G) [nisin A derivative, hinge substitution M21G]	Listeria monocytogenes 33028	−

====

- Test system: C. sporogenes CBC5
- Experimental Details: Deferred antagonism assay
- Assay type: cell-based, Clostridium sporogenes
- Parameters: key: + = Enhanced bioactivity relative to control; − = Bioactivity equal to or less than control; NA = no activity evident
- Measurement Context: producing strain
Ends that are not written are not given here.
Endpoint: Bioactivity relative to control

Substance	Observed Result
M21F: nisin A derivative, hinge substitution M21F (ITSISLCTPGCKTGALMGCNFKTATCHCSIHVSK; cysteine pairing not given here; also: lantibiotic nisin-A; UniProt P13068 24-57, looked up, variant M21F)	−
NisinA N20S (ITSISLCTPGCKTGALMGCSMKTATCHCSIHVSK; not fully specified; also: lantibiotic nisin: dehydrated residues and thioether rings not placed; UniProt P13068 24-57, looked up, variant N20S) [nisin A derivative, hinge substitution N20S]	+
NisinA M21Y (ITSISLCTPGCKTGALMGCNYKTATCHCSIHVSK; not fully specified; also: lantibiotic: lanthionine rings and dehydro residues not placed; UniProt P13068 24-57, looked up, variant M21Y) [nisin A derivative, hinge substitution M21Y]	+
